# Experimental System: hRXRα (Homo sapiens, UniProt P19793)
# Sequence (P19793 1-462): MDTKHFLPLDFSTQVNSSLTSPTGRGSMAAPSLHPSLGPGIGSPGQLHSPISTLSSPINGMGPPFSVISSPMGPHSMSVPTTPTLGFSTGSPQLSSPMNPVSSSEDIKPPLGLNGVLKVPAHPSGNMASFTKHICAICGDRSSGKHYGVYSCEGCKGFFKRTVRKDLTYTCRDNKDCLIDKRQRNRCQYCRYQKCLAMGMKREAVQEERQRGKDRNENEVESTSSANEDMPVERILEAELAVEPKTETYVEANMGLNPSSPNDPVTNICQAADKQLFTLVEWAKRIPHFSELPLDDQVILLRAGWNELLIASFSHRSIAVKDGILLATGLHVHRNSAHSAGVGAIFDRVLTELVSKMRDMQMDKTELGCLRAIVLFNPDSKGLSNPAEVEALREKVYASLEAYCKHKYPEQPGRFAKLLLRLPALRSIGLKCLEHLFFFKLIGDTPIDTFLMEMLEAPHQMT
# Assay Overview: Cotransfection assay in Schneider cells, RXR expression plasmid and ADH-CRBPII-LUC luciferase reporter
# Assay type: cell-based
# Conditions: Schneider cells; ADH-CRBPII-LUC
Result Type: activation of RXR (transcription from the reporter construct), in words

compound="COC(=O)/C=C(\\C)CC/C=C(\\C)CCC1OC1(C)C (stereo not shown) [JH III, reference compound]" result="do not activate RXR"
compound="CC(C)=CCC/C(C)=C/CC/C(C)=C/CO [farnesol, reference compound]" result="do not activate RXR"
compound="COC(C)(C)CCCC(C)C/C=C/C(C)=C/C(=O)OC(C)C (stereo not shown)" result="activate RXR"
compound="CCOC(=O)/C=C(C)/C=C/CC(C)CCCC(C)C (stereo not shown) [hydroprene]" result="activate RXR"
